Test system: 786-0 renal
Assay: NCI-60 one-dose screen, 48 h
Settings: 10 µM unless noted
Compounds without any hit were thinned out: in the full panel of roughly 83,000, 20% have a hit. Activity calls are given as the source filed them. Rule for the calls: active = growth percent below 10; inactive = the rest.
Possible outcomes: 1 (yes) = active, 0 (no) = inactive

{"COMPOUND": "Cc1ccc(Nc2cc(N)nc(N)n2)cc1Cl", "LABEL": "0 (no)"}
{"COMPOUND": "Cc1c2cnccc2c(C)c2c1c1cc(C#N)ccc1n2C", "LABEL": "1 (yes)"}
{"COMPOUND": "OB1OCc2cc(/C=C/c3cccc(C(F)(F)F)c3)ccc21", "LABEL": "1 (yes)"}
{"COMPOUND": "CCCCCCCCCc1ccc(OCCOCCOCCOCCOCCOCCOCCOCCOCCO)cc1", "LABEL": "0 (no)"}
{"COMPOUND": "CCCNc1nc2ccccc2c2c1S(=O)(=O)c1ccc(Cl)cc1C2=O", "LABEL": "0 (no)"}
{"COMPOUND": "COc1ccc(\\C=N/N=C(N)/C(N)=N\\N=C/c2ccc(OC)cc2)cc1", "LABEL": "0 (no)"}
{"COMPOUND": "Nc1n[nH]c2ccc([C@H]3[C@@H]4C5CCC(C5)[C@@H]4c4c(ccc5[nH]ncc45)N3S(=O)(=O)C3CC3)cc12 (stereo partly drawn)", "LABEL": "0 (no)"}
{"COMPOUND": "O=C(CN1CCOCC1)Nc1nc(-c2cc3ccccc3oc2=O)cs1", "LABEL": "0 (no)"}
{"COMPOUND": "CC(C)c1ccc(Cc2cnc(NC(=O)c3cc(Br)cs3)s2)cc1", "LABEL": "0 (no)"}
{"COMPOUND": "Nc1ncnc2c1N=C(c1ccc(Br)cc1)CC(c1cccc(Nc3ccnc4cc(C(F)(F)F)ccc34)c1)N2 (stereo not drawn)", "LABEL": "0 (no)"}
{"COMPOUND": "O=C(O)c1cn(C2CC2)c2cc(N3CCN(C(=O)N(c4ccccc4)c4nc(-c5ccccc5)cs4)CC3)c(F)cc2c1=O", "LABEL": "1 (yes)"}
{"COMPOUND": "Cc1ccc2c(n1)C(=O)C(Br)=C(C1CCCC1)C2=O", "LABEL": "0 (no)"}
{"COMPOUND": "O=S(=O)(NCCNc1nccc(-c2c(-c3ccc(F)c(O)c3)nc3occn23)n1)c1ccc(Cl)cc1", "LABEL": "0 (no)"}
{"COMPOUND": "COc1ccc(C/C(C)=C(\\c2ccc(Cl)cc2)c2ccc(OCCN3CCCCC3)cc2)cc1", "LABEL": "0 (no)"}
{"COMPOUND": "Cc1ccc(Nn2c(SCC(=O)Nc3nc(-c4ccccc4)cs3)nc(C)c2C)cc1", "LABEL": "0 (no)"}
{"COMPOUND": "O=C1c2ccccc2-c2c1c1c(=O)[nH]c3ccccc3c1n2Cc1ccccc1", "LABEL": "0 (no)"}
{"COMPOUND": "Cc1sc2nc(NCCc3c[nH]c4ccc(Cl)cc34)[nH]c(=O)c2c1C", "LABEL": "0 (no)"}
{"COMPOUND": "C=C(CBr)[C@@H]1CC[C@]2(C(=O)O)CC[C@]3(C)[C@H](CC[C@@H]4[C@@]5(C)CCC(=O)C(C)(C)[C@@H]5CC[C@]43C)[C@@H]12", "LABEL": "0 (no)"}
{"COMPOUND": "O=C1/C(=C/c2cn(-c3ccccc3)nc2-c2ccccc2)SC(=S)N1C1CCCCC1", "LABEL": "0 (no)"}
{"COMPOUND": "Cc1ccc(NC(=O)Cn2cc(CN3CCN(c4ccnc5cc(Cl)ccc45)CC3)nn2)cc1", "LABEL": "0 (no)"}
{"COMPOUND": "CC(C)(C)CC(C)(C)NC(=O)Nc1ncccc1OCc1ccccc1", "LABEL": "0 (no)"}
{"COMPOUND": "COc1ccc(-c2cc(-c3ccc(Cl)cc3)c(C#N)c(=O)n2Cc2ccc(C(=O)Nc3ccccc3N)cc2)cc1", "LABEL": "0 (no)"}
{"COMPOUND": "Cc1[nH]c(=O)[nH]c(=O)c1Br", "LABEL": "0 (no)"}
{"COMPOUND": "Cn1cc(C(=O)c2nc(-c3c[nH]c4ccccc34)no2)c2cc(F)ccc21", "LABEL": "0 (no)"}
{"COMPOUND": "COC(=O)Nc1nc2ccc(S(=O)c3ccccc3)cc2[nH]1 (stereo not drawn)", "LABEL": "0 (no)"}
{"COMPOUND": "Cc1ccc(-c2nc([P+](c3ccccc3)(c3ccccc3)c3ccccc3)c(S(=O)(=O)c3ccc(C)cc3)o2)cc1", "LABEL": "1 (yes)"}
{"COMPOUND": "O=C(OC(CO)C(=O)NC12CC3CC(CC(C3)C1)C2)c1ccc(Cl)cc1 (stereo not drawn)", "LABEL": "0 (no)"}
{"COMPOUND": "CCOC(=O)c1cc(C)n(-c2ccc(C(=O)O)cc2)c1C", "LABEL": "0 (no)"}
{"COMPOUND": "C=CCN=c1sc2c(n1NC(=O)c1cc3ccc1CCc1ccc(cc1)CC3)C(=O)c1ccccc1C2=O", "LABEL": "1 (yes)"}
{"COMPOUND": "COc1ccc(-c2nn(-c3cccc(Cl)c3)cc2-c2cc(-c3ccc(Br)cc3)nc(N)n2)cc1", "LABEL": "0 (no)"}
{"COMPOUND": "O=C(O)CCN1C(=O)/C(=C/C(Cl)=C/c2ccccc2)SC1=S", "LABEL": "1 (yes)"}
{"COMPOUND": "COc1c(B(O)O)cccc1-c1cc(C)c2c(ccc3[nH]ncc32)n1", "LABEL": "0 (no)"}
{"COMPOUND": "O=S(=O)(Nc1cc(F)cc(Cl)c1)c1ccc(-c2cnc(C3CC3)o2)cc1", "LABEL": "0 (no)"}
{"COMPOUND": "CCC(C(=O)[C@@H](C)[C@@H](O)[C@H](C)[C@@H]1O[C@@H]([C@@H](CC)C(=O)ONC(=O)c2ccccc2)CC[C@@H]1C)[C@H]1O[C@]2(C=CC(=O)[C@]3(CC[C@@](C)([C@H]4CC[C@](O)(CC)[C@H](C)O4)O3)O2)[C@H](C)C[C@@H]1C (stereo partly drawn)", "LABEL": "1 (yes)"}
{"COMPOUND": "COc1ccc(Nc2ncc(Br)c(NCCCNC(=O)c3cccs3)n2)cc1", "LABEL": "0 (no)"}
{"COMPOUND": "COc1ccc(/C=N/C2=C(C#N)C(c3ccccc3)c3ccc4ccccc4c3O2)cc1 (stereo not drawn)", "LABEL": "0 (no)"}
{"COMPOUND": "O=c1[nH]c(Cc2nc3ccccc3s2)nc2cc(Br)ccc12", "LABEL": "0 (no)"}
{"COMPOUND": "COCCOc1cc2ncnc(N3CCN(c4cc(S(C)(=O)=O)c(C)cc4Cl)CC3)c2cc1OCCOC", "LABEL": "0 (no)"}

* * *

Test system: A498 renal
Assay: NCI-60 one-dose screen, 48 h
Details: 10 µM unless noted
The panel holds about 83,000 compounds, 20% with a hit somewhere; the sample as a whole holds those more often. The source made the active and inactive calls. The calls were made as follows: active = growth percent below 10; inactive = the rest.
Possible outcomes: true = active, false = inactive

{"COMPOUND": "CC(=O)O[C@@H]1C[C@]2(C(C)C)O[C@@]1(C)[C@@H]1CCC(C)=C1[C@@H]2OC(=O)/C=C/c1ccccc1", "LABEL": "true"}
{"COMPOUND": "O=C1NC2(Nc3ccccc31)C(=O)Nc1c(Cl)cc(Cl)cc12 (centres undefined)", "LABEL": "false"}
{"COMPOUND": "COc1cccc(CNc2ccc3ncnc(Nc4ccc(F)c(Cl)c4)c3c2)c1", "LABEL": "false"}
{"COMPOUND": "O=C(OC(CO)C(=O)NC12CC3CC(CC(C3)C1)C2)c1ccc(Cl)cc1 (centres undefined)", "LABEL": "false"}
{"COMPOUND": "CC(C)(Sc1cc(C(C)(C)C)c(O)c(C(C)(C)C)c1)Sc1cc(C(C)(C)C)c(OC(=O)CCCC(=O)O)c(C(C)(C)C)c1", "LABEL": "false"}
{"COMPOUND": "COc1cc(-c2nc3sccn3c2-c2ccnc(NCCNS(=O)(=O)c3ccccc3)n2)ccc1F", "LABEL": "false"}
{"COMPOUND": "N#CC(C#N)N=Nc1ccc(Br)cc1", "LABEL": "false"}
{"COMPOUND": "COc1ccc(/C=C/C(=O)c2ccc(Nc3ccnc4cc(Cl)ccc34)cc2)cc1", "LABEL": "false"}
{"COMPOUND": "Cn1ccc(=O)c(C(=O)Nc2nsc3ccc([N+](=O)[O-])cc23)c1", "LABEL": "false"}

Cited source: PubChem BioAssay (NCI)
